Test system: Puccinia recondita f. Sp. Tritici
Test: Puccinia recondita f. sp. tritici / wheat / leaf disc preventative (brown rust)
Assay type: in vivo
Details: foliar, 200 ppm in the applied formulation, wheat leaf segments cv. Kanzler, inoculated 1 day after application, vs untreated, 7 to 9 days after application, read-out: disease control
endpoint: pest or weed control at 200 ppm

Example entries begin here.
>>> reported("CC(CO)(CCl)C(=O)Nc1ccc(-c2noc(C(F)(F)F)n2)cc1 (stereo not drawn) [Compound 1.103]")
"≥ 80%"
>>> reported("O=C(Nc1ccc(-c2noc(C(F)(F)F)n2)cc1)C1CSC1 [Compound 1.82]")
"≥ 80%"
>>> reported("CC(=O)N(C)c1ccc(-c2noc(C(F)(F)F)n2)cc1 [Compound 2.18]")
"≥ 80%"
>>> reported("O=C(Cc1ccccc1F)Nc1ccc(-c2noc(C(F)(F)F)n2)cc1 [Compound 1.100]")
"≥ 80%"
>>> reported("O=C(Nc1ccc(-c2noc(C(F)(F)F)n2)nc1)c1ccc(-n2ccnc2)cc1 [Compound 1.54]")
"≥ 80%"

Query block: Query pest or weed control at 200 ppm for CN(C(=O)c1ccccc1)c1ccc(-c2noc(C(F)(F)F)n2)cc1 [Compound 2.20]
Result block: ≥ 80%

----------
Recorded pest or weed control at 200 ppm for the following compounds
System: Puccinia recondita f. Sp. Tritici
Test: Puccinia recondita f. sp. tritici / wheat / leaf disc curative (brown rust)
Type: in vivo
Details: foliar, 200 ppm in the applied formulation, wheat leaf segments cv. Kanzler, compound applied 1 day after inoculation, vs untreated, 6 to 8 days after application, read-out: disease control

Example entries begin here.
>>> reported("O=C(CCO)Nc1ccc(-c2noc(C(F)(F)F)n2)cc1 [Compound 1.75]")
"≥ 80%"
>>> reported("COC(=O)C(C)(C)CC(=O)Nc1ccc(-c2noc(C(F)(F)F)n2)cc1 [Compound 1.73]")
"≥ 80%"
>>> reported("C=C(C)CONC(=O)Nc1ccc(-c2noc(C(F)(F)F)n2)cc1 [Compound 1.70]")
"≥ 80%"
>>> reported("COCC(=O)Nc1ccc(-c2noc(C(F)(F)F)n2)cc1 [Compound 2.1]")
"≥ 80%"
>>> reported("CC(=O)N(C(C)=O)c1ccc(-c2noc(C(F)(F)F)n2)cn1 [Compound 1.45]")
"≥ 80%"
>>> reported("O=C(CCc1ccncc1)Nc1ccc(-c2noc(C(F)(F)F)n2)cc1 [Compound 1.107]")
"≥ 80%"
>>> reported("CON(C)C(=O)N(C)c1ccc(-c2noc(C(F)(F)F)n2)cc1 [Compound 1.126]")
"≥ 80%"
>>> reported("CCN(OC)C(=O)Nc1ccc(-c2noc(C(F)(F)F)n2)cc1 [Compound 1.67]")
"≥ 80%"

Alright, here's another compound for you.
Query block: Query pest or weed control at 200 ppm for COCC(=O)N(C)c1ccc(-c2noc(C(F)(F)F)n2)cc1 [Compound 1.129]
Result block: ≥ 80%

----------
Recorded pest or weed control at 200 ppm for the following molecules
System: Puccinia recondita f. Sp. Tritici
Test: Puccinia recondita f. sp. tritici / wheat / leaf disc preventative (brown rust)
Assay type: in vivo
Settings: foliar, 200 ppm in the applied formulation, wheat leaf segments cv. Kanzler, inoculated 1 day after application, vs untreated, 7 to 9 days after application, read-out: disease control

Example entries begin here.
>>> reported("COCC(=O)Nc1ccc(-c2noc(C(F)(F)F)n2)cc1 [Compound 2.1]")
"≥ 80%"
>>> reported("CCN(OC)C(=O)Nc1ccc(-c2noc(C(F)(F)F)n2)cc1 [Compound 1.67]")
"≥ 80%"

Alright, here's another molecule for you.
Query block: Query pest or weed control at 200 ppm for COCCN(OC)C(=O)Nc1ccc(-c2noc(C(F)(F)F)n2)cc1 [Compound 1.68]
Result block: ≥ 80%

Every entry's value here was drawn from patent US20200022370A1.
